Recorded values, source ChEMBL document CHEMBL3868631.

Biological target: SOAT1 (sterol O-acyltransferase 1) (Chlorocebus aethiops)
Sequence (O77760 whole entry): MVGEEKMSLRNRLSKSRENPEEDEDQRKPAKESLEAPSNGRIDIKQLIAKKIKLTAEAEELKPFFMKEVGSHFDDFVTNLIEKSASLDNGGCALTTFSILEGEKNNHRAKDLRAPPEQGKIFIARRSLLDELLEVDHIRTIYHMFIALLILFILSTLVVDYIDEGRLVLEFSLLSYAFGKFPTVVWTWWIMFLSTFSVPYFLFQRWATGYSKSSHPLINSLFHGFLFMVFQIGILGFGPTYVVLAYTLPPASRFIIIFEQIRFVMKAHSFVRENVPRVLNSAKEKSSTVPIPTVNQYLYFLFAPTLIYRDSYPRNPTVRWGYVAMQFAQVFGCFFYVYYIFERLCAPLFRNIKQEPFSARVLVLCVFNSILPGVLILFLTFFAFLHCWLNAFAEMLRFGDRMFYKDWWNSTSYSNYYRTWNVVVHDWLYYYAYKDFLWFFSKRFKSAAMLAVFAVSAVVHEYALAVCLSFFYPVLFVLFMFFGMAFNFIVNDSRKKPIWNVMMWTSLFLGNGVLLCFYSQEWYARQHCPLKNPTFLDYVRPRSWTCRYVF
Test: Inhibition of African green monkey SOAT1 expressed in CHO cells assessed as reduction in [14C]cholesteryl ester formation from [1-14C]oleic acid at 10 ug/ml measured after 6 hrs relative to control
Type: ADME, cell-based
Details: CHO cells expressing African green monkey SOAT1, probe [1-14C]oleic acid
Consider the following molecules and their measured inhibition at 6 h, 10 ug/ml readings.

Solved entries (count: 5):
CCC[C@@H]1C[C@@H](NCc2ccccc2)C[C@@]2(O1)C(=O)N(Cc1ccccc1)c1ccccc12 (racemic) | > 50%
CCC[C@@H]1C/C(=N/O)C[C@@]2(O1)C(=O)Nc1ccccc12 (racemic) | > 50%
O=C1CC(c2ccccc2)O[C@]2(C1)C(=O)Nc1cccc(Br)c12 (mixture of isomers) | > 50%
CCC[C@@H]1C/C(=N/OCc2ccccc2)C[C@@]2(O1)C(=O)Nc1ccccc12 | > 50%
CCC/C=C/C(=O)CC1(O)C(=O)Nc2cccc(Br)c21 (racemic) | > 50%

Incoming: Give its inhibition at 6 h, 10 ug/ml value. Item: CCC[C@@H]1CC(=O)C[C@@]2(O1)C(=O)N(C)c1cccc(Br)c12
Outgoing: > 50%

Incoming: # input molecule: CCC[C@@H]1CC(=NOCc2ccccc2)C[C@@]2(O1)C(=O)Nc1ccccc12 (racemic) ; wanted: its inhibition at 6 h, 10 ug/ml
Outgoing: > 50%

###

Entries and their measured IC50 follow.
Target: UniProt:O77760
Sequence (O77760 whole entry): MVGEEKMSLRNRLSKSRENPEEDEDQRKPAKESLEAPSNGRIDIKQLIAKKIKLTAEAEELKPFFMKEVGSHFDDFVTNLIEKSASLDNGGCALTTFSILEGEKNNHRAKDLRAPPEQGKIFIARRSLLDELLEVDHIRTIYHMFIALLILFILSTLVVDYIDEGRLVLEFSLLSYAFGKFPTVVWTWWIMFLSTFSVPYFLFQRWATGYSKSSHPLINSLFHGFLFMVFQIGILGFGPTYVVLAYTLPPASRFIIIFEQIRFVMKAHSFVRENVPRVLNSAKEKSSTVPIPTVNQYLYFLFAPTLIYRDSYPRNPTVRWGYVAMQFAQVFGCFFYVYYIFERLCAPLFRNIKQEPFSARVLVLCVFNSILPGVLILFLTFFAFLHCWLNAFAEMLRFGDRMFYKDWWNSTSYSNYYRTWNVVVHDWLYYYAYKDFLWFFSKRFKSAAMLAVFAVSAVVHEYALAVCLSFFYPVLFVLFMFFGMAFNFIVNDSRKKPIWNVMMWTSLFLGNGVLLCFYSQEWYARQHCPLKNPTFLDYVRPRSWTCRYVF
Assay: Inhibition of African green monkey SOAT1 expressed in CHO cells assessed as reduction in [14C]cholesteryl ester formation from [1-14C]oleic acid measured after 6 hrs
Record the value in µM, omitting the unit from your answer.

Use these answered entries as a reference point.
CCC[C@H]1C/C(=N/OCc2ccccc2)C[C@]2(O1)C(=O)Nc1ccccc12 | 14
CCC[C@@H]1C/C(=N/OCc2ccccc2)C[C@@]2(O1)C(=O)Nc1ccccc12 | 16

Incoming: GET /values?readout=IC50&item= CCC[C@@H]1C[C@@H](NCc2ccccc2)C[C@@]2(O1)C(=O)N(Cc1ccccc1)c1ccccc12 (racemic)
Outgoing: 11

Incoming: Requested read-out: IC50. Entry: CCC[C@@H]1CC(=NOCc2ccccc2)C[C@@]2(O1)C(=O)Nc1ccccc12 (racemic)
Outgoing: 8.9

###

Target: Sterol O-acyltransferase 2 (Chlorocebus aethiops)
Sequence (O77759 whole entry): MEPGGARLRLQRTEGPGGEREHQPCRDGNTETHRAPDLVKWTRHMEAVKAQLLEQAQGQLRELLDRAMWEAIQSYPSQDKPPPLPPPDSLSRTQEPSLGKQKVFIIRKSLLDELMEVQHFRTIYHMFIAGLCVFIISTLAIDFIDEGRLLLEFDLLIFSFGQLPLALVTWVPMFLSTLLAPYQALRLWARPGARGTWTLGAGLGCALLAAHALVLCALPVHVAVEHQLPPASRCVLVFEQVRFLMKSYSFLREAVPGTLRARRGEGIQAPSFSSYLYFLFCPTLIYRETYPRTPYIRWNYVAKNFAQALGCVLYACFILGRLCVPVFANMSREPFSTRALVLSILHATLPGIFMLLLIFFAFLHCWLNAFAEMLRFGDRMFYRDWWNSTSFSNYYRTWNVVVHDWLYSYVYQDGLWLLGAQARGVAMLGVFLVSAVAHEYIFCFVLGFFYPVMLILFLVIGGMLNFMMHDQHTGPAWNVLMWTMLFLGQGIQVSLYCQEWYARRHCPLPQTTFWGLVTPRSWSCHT
Assay: Inhibition of African green monkey SOAT2 expressed in CHO cells assessed as reduction in [14C]cholesteryl ester formation from [1-14C]oleic acid measured after 6 hrs
Type: cell-based
pIC50: −log10 of the molar value.
Classification field: enter true (1) for pIC50 values not below 5, false (0) for values below it.

CCC[C@@H]1C[C@@H](NCc2ccccc2)C[C@@]2(O1)C(=O)Nc1ccccc12 (racemic) | true (1)
CCC[C@@H]1C[C@@H](NCc2ccccc2)C[C@@]2(O1)C(=O)N(C)c1ccccc12 (racemic) | false (0)
CCC[C@@H]1C/C(=N/OCc2ccccc2)C[C@@]2(O1)C(=O)Nc1ccccc12 | true (1)
CCC[C@@H]1C[C@@H](N2CCCC2)C[C@@]2(O1)C(=O)Nc1ccccc12 (racemic) | false (0)

Incoming: Could you tell me if the measured pIC50 of CCC[C@@H]1C[C@@H](NCc2ccccc2)C[C@@]2(O1)C(=O)N(C)c1cccc(Br)c12 (racemic) reaches 5 or more?
Outgoing: false (0)

Incoming: Could you tell me if the measured pIC50 of CCC[C@@H]1CC(=NOCc2ccccc2)C[C@@]2(O1)C(=O)Nc1ccccc12 (racemic) reaches 5 or more?
Outgoing: true (1)

Incoming: Please tell me: is the molecule CCC[C@H]1C/C(=N/OCc2ccccc2)C[C@]2(O1)C(=O)Nc1ccccc12 at or over 5 in terms of pIC50?
Outgoing: false (0)

###

Target: UniProt:O77760
Experiment: Inhibition of African green monkey SOAT1 expressed in CHO cells assessed as reduction in [14C]cholesteryl ester formation from [1-14C]oleic acid at 10 ug/ml measured after 6 hrs relative to control
Type: ADME, cell-based
Conditions: CHO cells expressing African green monkey SOAT1, probe [1-14C]oleic acid
endpoint label: inhibition at 6 h, 10 ug/ml

A selection of reference data follows.
CCC[C@@H]1C[C@@H](NCc2ccccc2)C[C@@]2(O1)C(=O)N(C)c1cccc(Br)c12 (racemic) | > 50%
CCC[C@H]1C/C(=N/OCc2ccccc2)C[C@]2(O1)C(=O)Nc1ccccc12 | > 50%
CCC[C@@H]1C[C@@H](N2CCCC2)C[C@@]2(O1)C(=O)Nc1ccccc12 (racemic) | > 50%
CCC[C@@H]1C[C@@H](NCc2ccccc2)C[C@@]2(O1)C(=O)Nc1ccccc12 (racemic) | > 50%

Incoming: I would be grateful if you could share the reported inhibition at 6 h, 10 ug/ml for CCC[C@@H]1C[C@@H](NCc2ccccc2)C[C@@]2(O1)C(=O)Nc1cccc(Br)c12 (racemic) .
Outgoing: > 50%

Incoming: Field request: inhibition at 6 h, 10 ug/ml | item: CCC[C@@H]1C[C@@H](NCc2ccccc2)C[C@@]2(O1)C(=O)N(C)c1ccccc12 (racemic)
Outgoing: > 50%

###

Target: UniProt O77760
Test: Inhibition of African green monkey SOAT1 expressed in CHO cells assessed as reduction in [14C]cholesteryl ester formation from [1-14C]oleic acid measured after 6 hrs
endpoint label: IC50

Examples with their reported IC50 follow.
CCC[C@@H]1C[C@@H](N2CCCC2)C[C@@]2(O1)C(=O)Nc1ccccc12 (racemic) | > 31 µM
CCC[C@@H]1CC(=O)C[C@@]2(O1)C(=O)N(C)c1cccc(Br)c12 | > 28 µM
CCC[C@@H]1C[C@@H](NCc2ccccc2)C[C@@]2(O1)C(=O)Nc1cccc(Br)c12 (racemic) | > 23 µM

Incoming: Which value of IC50 has been reported for CCC[C@@H]1C[C@@H](NCc2ccccc2)C[C@@]2(O1)C(=O)N(C)c1cccc(Br)c12 (racemic) in the records?
Outgoing: > 22 µM

Incoming: Can you look up the measured IC50 of CCC[C@@H]1C[C@@H](NCc2ccccc2)C[C@@]2(O1)C(=O)Nc1ccccc12 (racemic) for me?
Outgoing: > 28 µM

Incoming: // returns reported IC50 for input CCC[C@@H]1C[C@@H](NCc2ccccc2)C[C@@]2(O1)C(=O)N(C)c1ccccc12 (racemic)
Outgoing: > 27 µM
